experiment: in vitro; conditions: rat, gh3-tre-luc cells, AC50 (uM) modified / 1000, Tox21_110001=Tox21_202228; viability, 1 nM T3 present, 24 h
metric: CC50 at 24 h (µM)
Report as a plain number; the unit µM is understood.

Recorded result, CCCN(CCC)c1c([N+](=O)[O-])cc(C(C)C)cc1[N+](=O)[O-] , CC50 at 24 h: 89.1

* * *

test: in vitro; conditions: rat, gh3-tre-luc cells, AC50 (uM) modified / 1000, Tox21_110001=Tox21_301761; viability, 1 nM T3 present, 24 h
metric: CC50 at 24 h

Memo: CC(C)CP(=S)(S)CC(C)C , reported CC50 at 24 h: > 90 µM

* * *

assay: in vitro; details: rat, gh3-tre-luc cells, AC50 (uM) modified / 1000, Tox21_110001=Tox21_300473; viability, 1 nM T3 present, 24 h
metric: CC50 at 24 h (µM)
Just the number please, in µM, no unit attached.

The recorded CC50 at 24 h for entry CCCCN(CCCC)SN(C)C(=O)Oc1cccc2c1OC(C)(C)C2 equals 24.2

* * *

test: in vitro; conditions: rat, gh3-tre-luc cells, AC50 (uM) modified / 1000
Counter-ions that a name gives are not always drawn.
metric: CC50 at 24 h

Briefly, CC50 at 24 h measured for CCCOC(=O)c1ccccc1 [Propyl benzoate] : > 90 µM

get_value(item= CCN1CCCC1CNC(=O)c1cc(S(=O)(=O)CC)ccc1OC (centres unmarked) [Sultopride hydrochloride] , readout=CC50 at 24 h) returns > 50 µM

Lookup result for O=C1CCCc2c1cc1ccc3cccc4ccc2c1c34 [9,10-Dihydrobenzo[a]pyren-7(8H)-one] ; measured CC50 at 24 h: > 90 µM

Documented CC50 at 24 h of COC(=O)CCCCC(=O)OC [Dimethyl adipate] : > 90 µM

Per the records, this compound ( CC1(C)CCC(C)(C)c2cc(C(=O)Nc3ccc(C(=O)O)cc3)ccc21 [AM580] ) has CC50 at 24 h equal to 66.2 µM

Value of measured CC50 at 24 h for the entry CC(=O)OCCN(CCOC(C)=O)c1ccc(N=Nc2ccc([N+](=O)[O-])cc2C#N)cc1 [Disperse Red 82] : 54 µM

Data point: COC(=O)CC#N [Methyl cyanoacetate] ; CC50 at 24 h = > 100 µM

Briefly, CC50 at 24 h measured for C[N+](C)(C)CCCCCC[N+](C)(C)C : > 50 µM

Data point: CCOC(=O)CS [Acetic acid,mercapto-,ethylester] ; CC50 at 24 h = > 90 µM

Entry under test: Cc1cccc(Br)c1 [3-Bromotoluene] . Its CC50 at 24 h was > 90 µM

Lab note: O=C(O)c1cc2ccccc2c(Cc2c(O)c(C(=O)O)cc3ccccc23)c1O [Pamoic acid] gave CC50 at 24 h of > 50 µM

The value of CC50 at 24 h measured for the compound ClC/C=C/CCl [(2E)-1,4-Dichlorobut-2-ene] turned out to be > 90 µM

// sample CCCCCC(=O)OCC [Ethyl hexanoate] , its CC50 at 24 h was > 90 µM

# CC50 at 24 h (compound: Clc1ccc(Cn2c(CN3CCCC3)nc3ccccc32)cc1 [Clemizole hydrochloride] ) is > 20 µM

Note to self: CC50 at 24 h recorded for CCCCCCCCOC(C)=O [Octyl acetate] was > 90 µM

Query CCOc1ccc(/N=C(\C)Nc2ccc(OCC)cc2)cc1 [Phenacaine] yields CC50 at 24 h of > 50 µM

The compound CNC(=O)ON=C(C)C(C)S(C)(=O)=O (centres unmarked) [Butoxycarboxim] showed CC50 at 24 h equal to > 900 µM

Record summary for Cc1c(COC(=O)[C@@H]2[C@H](/C=C(\Cl)C(F)(F)F)C2(C)C)cccc1-c1ccccc1 (racemic) [Bifenthrin] : reported CC50 at 24 h = > 90 µM

// sample CC1(C)O[C@@H]2C[C@H]3[C@@H]4CCC5=CC(=O)C=C[C@]5(C)[C@H]4[C@@H](O)C[C@]3(C)[C@]2(C(=O)CO)O1 [Desonide] , its CC50 at 24 h was > 50 µM

The compound listed as NCCc1ccc(O)c(O)c1 [Dopamine hydrochloride] shows CC50 at 24 h equal to 55.3 µM

# credit: paper PMC6792352
